# Method: S. cerevisiae RM11-1a growth modifiers, primary screen, strain RM11-1a, OD600, basal, 24 h (AID 1177);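 further: cultures grown under basal conditions with no added stressor; test concentration not given here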
# Reported Conditions: OD600, 24 h, higher = more signal, called active from +8 up or from −8 down
Property Label: z-score
Lab note: jot the number down without any unit.

Endpoint output: z-score of C=C(CCCC)/C(=C/C[C@@H](OC(=O)c1ccncc1)c1cccc(OCCO)c1)c1cnc2ccccc2c1 . Value?
0.264

Endpoint output: z-score of COCCCNC(=O)[C@@]1(Sc2ccc(C)cc2)CC(=O)N(Cc2cc(C(F)(F)F)cc(C(F)(F)F)c2)[C@@H]1c1ccc(CO)cc1 . Value?
-0.219

Endpoint output: z-score of O=C1c2ccccc2[C@@]2(Cc3ccccc3N(C3CC3)C2=O)[C@H](c2ccc(CO)cc2)N1C1CCCCC1 . Value?
1.24

Endpoint output: z-score of Cc1ccc(F)cc1S(=O)(=O)N[C@@H]1CCN(Cc2ccc(OC(C)C)cc2)C1 . Value?
0.652

Endpoint output: z-score of COCCCNC(=O)[C@]1(Cc2ccccc2N=[N+]=[N-])N=C(c2ccc(OCCCO)cc2)O[C@@H]1c1ccccc1N=[N+]=[N-] . Value?
0.315

Endpoint output: z-score of CC(=O)N1Cc2ccccc2C[C@]2(N=C(c3ccc(OCCCO)cc3)O[C@@H]2c2ccccc2)C1=O . Value?
1.93

Endpoint output: z-score of CC(C)CN1C(=O)[C@@]2(Cc3ccccc31)c1ccccc1C(=O)N(Cc1ccccc1C(F)(F)F)[C@H]2c1ccc(CO)cc1 . Value?
-2.06

Endpoint output: z-score of C=CCC(OC(C)=O)[C@@H]1[C@@H](N(Cc2ccc(-c3ccccc3)cc2)C(=O)c2cccc3ccccc23)c2cc(OCCCO)ccc2N1C(=O)Cc1ccc2ccccc2c1 (some centres undefined) . Value?
-0.611

Endpoint output: z-score of CC(C)(C)OC(=O)CC[C@@]1(C(=O)O)N=C(c2ccc(OCCCO)cc2)O[C@@H]1c1ccccc1CN=[N+]=[N-] . Value?
0.323

Endpoint output: z-score of CC1CC/C=C\[C@H]2OC34C=CCN(c5ccc6ccccc6c5)C(=O)[C@H]3N(C(CO)C(C)C)C(=O)[C@@H]4C2C(=O)O1 (some centres undefined) . Value?
-0.319

Endpoint output: z-score of CC(C)(C)N1CC=CC23O[C@@H]4C=CCOC(=O)[C@@H]4[C@H]2C(=O)N(CCCO)[C@@H]3C1=O (some centres undefined) . Value?
0.297

Endpoint output: z-score of C=CC[C@@]1(C(=O)N2CCCCC2)N=C(c2ccc(OCCCO)cc2)O[C@@H]1c1ccccc1 . Value?
0.404

Endpoint output: z-score of COc1c(C)cc(-c2cc3c(c(-c4ccccc4)n2)[Si](C(C)C)(C(C)C)OC3)cc1C . Value?
-0.741

Endpoint output: z-score of C[n+]1ccc(CCCO)cc1 . Value?
0.684

Endpoint output: z-score of CC[C@H]1C2=C3C(CC[C@H]4C(OCc5ccc(F)cc5C(F)(F)F)OC[C@](C)([C@@H]34)N(C(=O)OC(C)(C)C)C2)C2COC(=O)OCC21 (some centres undefined) . Value?
0.368

Endpoint output: z-score of C=C(CCCC)C(=O)CC[C@@H](OC(=O)c1cccnc1)c1ccccc1OCCO . Value?
0.231

Endpoint output: z-score of CC(C)C(CO)N1C(=O)[C@]2(C)C3C(=O)OCCC/C=C\[C@H]3OC23C=CCN(c2ccc(Cl)cc2)C(=O)[C@@H]13 (some centres undefined) . Value?
-0.3

Endpoint output: z-score of CC1CC/C=C\[C@H]2OC34C=CCN(CCN5CCOCC5)C(=O)[C@H]3N(CCO)C(=O)[C@@H]4C2C(=O)O1 (some centres undefined) . Value?
-0.585

Endpoint output: z-score of C=C[C@H](COC(C)=O)NS(=O)(=O)c1ccc(Br)cc1 . Value?
0.579

Endpoint output: z-score of CCOC(=O)C1=CC[C@@H](c2ccc([N+](=O)[O-])cc2)N(S(=O)(=O)c2ccc(C)cc2)[C@H]1c1ccccc1 . Value?
0.901

Endpoint output: z-score of C=CCOC(=O)[C@@H]1[C@H]2C(=O)O[C@H](c3ccccc3)[C@H](c3ccccc3)N2[C@H](c2ccc(OCCOC(=O)[C@H]3C[C@H]4C(=O)N[C@@H](CCCCNC(C)=O)C(=O)N4[C@H]3c3cccc(OCCO)c3)cc2)[C@@]12C(=O)Nc1ccc(I)cc12 . Value?
2

Endpoint output: z-score of C[C@]12C(=O)N(CCCCCCO)[C@@H]3C(=O)N(c4ccc(Cl)cc4)CC=CC31O[C@@H]1/C=C\CCCOC(=O)C12 (some centres undefined) . Value?
-1.29

Endpoint output: z-score of C[C@H]1C2=C3C(CC[C@H]4C(OCc5ccc(F)cc5C(F)(F)F)OC[C@](C)([C@@H]34)N(C(=O)OC(C)(C)C)C2)C(CO)C1CO (some centres undefined) . Value?
1.04

Endpoint output: z-score of O=C1O[C@H](c2ccccc2)[C@H](c2ccccc2)N2[C@H]1[C@@H](C(=O)O)[C@]1(C(=O)Nc3ccccc31)[C@H]2c1ccc(O)cc1 . Value?
0.473

Endpoint output: z-score of O=C(CCCCCCC(=O)Nc1ccccc1)N/N=C/c1ccccc1 . Value?
0.678

Endpoint output: z-score of COCCOC(=O)N1C(=O)[C@@]2(c3cc(C#CCC(C(=O)OC)C(=O)OC)ccc31)[C@H](c1ccc(OCCO)cc1)N1[C@H](c3ccccc3)[C@H](c3ccccc3)OC(=O)[C@H]1[C@@H]2C(=O)N1CCN(c2ncccn2)CC1 . Value?
1.82

Endpoint output: z-score of COc1ccc([Si](C)(C)[C@H]2[C@H](CCn3cc(CCO)nn3)O[C@@]3(C(=O)N(Cc4ccc(N5C(=O)c6cccc7cccc5c67)cc4)c4ccccc43)[C@@H]2C)cc1 . Value?
1.66

Endpoint output: z-score of CC(C)N1C(=O)[C@@]2(c3ccc([N+](=O)[O-])cc3)CC(=O)N(C3CCCCC3)[C@@H]2c2ccc(CO)cc21 . Value?
-0.466

Endpoint output: z-score of O=C1OCCC=C[C@H]2OC34C=CCN(c5ccc(Cl)cc5)C(=O)[C@H]3N(CCCCCO)C(=O)[C@@H]4C12 (some centres undefined) . Value?
-0.429
